This section presents sequences with their documented log2 fold change of degron read counts values.
Target: T1, CRBN, Q96SW2;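 further: pooled lentiviral library of zinc finger degron-EGFP fusions in mCherry-positive Jurkat cells, FACS-sorted after compound exposure, with degron abundance counted by next-generation sequencing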
T1 chain: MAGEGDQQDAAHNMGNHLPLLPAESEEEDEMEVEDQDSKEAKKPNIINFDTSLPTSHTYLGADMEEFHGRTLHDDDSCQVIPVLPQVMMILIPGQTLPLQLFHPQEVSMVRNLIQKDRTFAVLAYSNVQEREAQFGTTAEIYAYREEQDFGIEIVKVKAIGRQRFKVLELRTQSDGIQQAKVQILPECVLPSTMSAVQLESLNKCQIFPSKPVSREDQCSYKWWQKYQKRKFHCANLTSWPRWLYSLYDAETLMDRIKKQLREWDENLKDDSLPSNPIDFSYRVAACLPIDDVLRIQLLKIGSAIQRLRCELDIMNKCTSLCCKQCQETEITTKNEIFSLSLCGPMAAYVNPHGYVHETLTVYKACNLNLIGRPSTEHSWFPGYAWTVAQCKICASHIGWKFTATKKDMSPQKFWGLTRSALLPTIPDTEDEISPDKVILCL
Test: log2 fold change of degron read counts, EGFP-low vs EGFP+ sorted cells (limma voom), compound-induced degradation; higher = more compound-induced degradation of the degron-EGFP fusion; degrons are variants of IKZF1/3 zinc finger 2; compound dose not given here
Settings: Jurkat; 18 h; compound: compound 22 (5-morpholino-thalidomide)
The full ranking holds about 8,300 sequences; the median of “log2 fold change of degron read counts, EGFP-low vs EGFP+ sorted cells (limma voom), compound-induced degradation” is about -1.1, and the highest 2% start at about 3.2. The list comes from a sample in which the highest values are over-represented; it also holds close analogues and randomly drawn sequences.
Measured attribute: log2 fold change of degron read counts

{"Polymer sequence": "FDCEVCGAMFTQKGNLLRHIKL [46F_47D_49E_50V_52G_53A_54M_55F_67L_, Q9UKT9]", "Quantitative result": -0.858}
{"Polymer sequence": "FHCEVCGAMFTQKGNLLRHIKL [46F_47H_49E_50V_52G_53A_54M_55F_67L_, Q9UKT9]", "Quantitative result": 1.27}
{"Polymer sequence": "FKCEVCGAMFTQKGNLLRHIKL [46F_47K_49E_50V_52G_53A_54M_55F_67L_, Q9UKT9]", "Quantitative result": -3.85}
{"Polymer sequence": "FYCEVCGAMFTQKGNLLRHIKL [46F_47Y_49E_50V_52G_53A_54M_55F_67L_, Q9UKT9]", "Quantitative result": 3.43}
